Recorded GI50 by entry
tested on: MCF7; experiment: NCI tumour cell line growth inhibition, 48 h
Counter-ions that a name gives are not always drawn. The source made the active and inactive calls. No stated cut-off is given here; in the data, active = GI50 up to about 1.1 µM and inactive = higher.

Guide cases for GI50, answers given:
[
  {
    "molecule": "O=C(Cc1ccccc1)Nc1nc2ccc(Cl)cc2c2nc(-c3ccco3)nn12",
    "GI50": "4.46 µM (inactive)"
  },
  {
    "molecule": "CCCCCCCCCCCCCCCCCc1nc(Cl)nc(Cl)c1Cl",
    "GI50": "> 100 µM (inactive)"
  },
  {
    "molecule": "CP(=O)(O)C(N)c1ccccc1 (stereo unspecified)",
    "GI50": "> 100 µM (inactive)"
  },
  {
    "molecule": "O=C(/C=C/c1ccccc1)NNC(=O)c1c(Cl)c(Cl)c(Cl)c(Cl)c1-c1nc2ccccc2[nH]1",
    "GI50": "24.2 µM (inactive)"
  }
]

Consider now this further molecule.
Entry CC(CN1c2ccccc2Sc2ccccc21)N(C)C (stereo unspecified) [PROMETHAZINE HYDROCHLORIDE] , system MCF7: what GI50 was measured? 25.8 µM (inactive)

----------
test system: CCRF-CEM; test: NCI tumour cell line growth inhibition, 48 h
Calls of active or inactive are those of the source. Cut-off read from the data, not from the text of the source: active = GI50 up to about 1.1 µM and inactive = higher.
observedProperty: GI50

Guide cases for GI50, answers given:
[
  {
    "compound": "CC(=O)O[C@H]1CCC2[C@@H]3CCC4=C(O)C(=O)C(C#N)C[C@]4(C)C3CC[C@@]21C (stereo not given in full)",
    "result": "30.1 µM (inactive)"
  },
  {
    "compound": "COc1cc(C(=O)C2CC3(CCC2(O)c2cc(OC)c(OC)c(OC)c2)CC(=O)Nc2ccccc2C3=O)cc(OC)c1OC (stereo not given)",
    "result": "37.3 µM (inactive)"
  },
  {
    "compound": "C=C1c2nc3ccccc3n2C=C(c2ccccc2)N1c1ccccc1",
    "result": "53.3 µM (inactive)"
  }
]

Entry CN1Cc2cc3c(cc2-c2ccccc21)OCO3 , system CCRF-CEM: what GI50 was measured? > 100 µM (inactive)

Do the same for O=C(O)C(Cc1cccs1)NC(=O)C(F)(F)F (stereo not given) please > 100 µM (inactive)

----------
test system: SF-295; experiment: NCI tumour cell line growth inhibition, 48 h
Calls of active or inactive are those of the source. Rule as the data show it: active = GI50 up to about 1.1 µM and inactive = higher.
Pick from 1 = active, 0 = inactive when you respond.

These recorded examples may help you get a feel for the data.
[
  {
    "testSmiles": "CCN(CC)c1ccc(C(=C2C=CC(=[N+](CC)CC)C=C2)c2ccc(N(CC)CC)cc2)cc1",
    "assignedLabel": 1
  },
  {
    "testSmiles": "CN1C(=O)[C@@H]2[C@@H]3c4ccccc4N(S(=O)(=O)C(F)(F)F)[C@@H]3c3[nH]c4ccccc4c3[C@@H]2C1=O",
    "assignedLabel": 0
  }
]

Consider now this further molecule.
Each molecule tested received a call. Report the one for O=c1c2ccccc2ncn1COCc1ccccc1 . 0

----------
tested on: M14; assay: NCI tumour cell line growth inhibition, 48 h
Activity calls are given as the source filed them. Rule as the data show it: active = GI50 up to about 1.1 µM and inactive = higher.
Pick from 1 = active, 0 = inactive when you respond.

These recorded examples may help you get a feel for the data.
[
  {
    "compound": "O=c1cc(-c2ccccc2F)[nH]c2ccc(N3CCCC3)cc12",
    "targetOfAssay": "M14",
    "assignedLabel": 1
  },
  {
    "compound": "COC(=O)C1=Cc2c(OC)cc(OC)c(OC)c2[C@H](c2cc(OC)c(OC)cc2OC)C1C(=O)OC (stereo partly specified)",
    "targetOfAssay": "M14",
    "assignedLabel": 0
  },
  {
    "compound": "COc1ccc(N(CC(=O)O)S(=O)(=O)c2ccccc2)cc1",
    "targetOfAssay": "M14",
    "assignedLabel": 0
  },
  {
    "compound": "OC1(C(O)(c2ccc(-c3ccccc3)cc2)c2ccc(-c3ccccc3)cc2)CCCCC1",
    "targetOfAssay": "M14",
    "assignedLabel": 0
  },
  {
    "compound": "O=C(/C=C/c1ccccc1)NNC(=O)c1c(Cl)c(Cl)c(Cl)c(Cl)c1-c1nc2ccccc2[nH]1",
    "targetOfAssay": "M14",
    "assignedLabel": 0
  },
  {
    "compound": "Clc1cc2ns[s+]c2cc1Cl",
    "targetOfAssay": "M14",
    "assignedLabel": 0
  },
  {
    "compound": "CCOC(=O)c1csc(NC(=O)C(C)N2CCCCC2)n1 (stereo unspecified)",
    "targetOfAssay": "M14",
    "assignedLabel": 0
  },
  {
    "compound": "CC(NNC(=O)c1cc[n+]([BH2-]C#N)cc1)c1ccc(Cl)cc1Cl (stereo unspecified)",
    "targetOfAssay": "M14",
    "assignedLabel": 0
  }
]

Each compound tested received a call. Report the one for C/C(Cl)=N\OC(=O)Nc1ccc(C)cc1 . 0

Do the same for CN(C)/N=N/c1ccc(NC=O)cc1 please 0

Do the same for O=[N+]([O-])c1nccn1CCCNc1ccnc2cc(Cl)ccc12 please 0

----------
tested on: BT-549; assay: NCI tumour cell line growth inhibition, 48 h
Activity calls are given as the source filed them. No stated cut-off is given here; in the data, active = GI50 up to about 1.1 µM and inactive = higher.
observedProperty: GI50

Guide cases for GI50, answers given:
[
  {
    "molecule": "Nc1ncnc2c1nc(Cl)n2[C@@H]1O[C@@H]2COP(=O)(O)O[C@H]2[C@H]1O",
    "result": "5.69 µM (inactive)"
  },
  {
    "molecule": "CC(NC(=O)C(N)CC(=O)O)NC(=O)N1CCOCC1 (centres undefined)",
    "result": "> 100 µM (inactive)"
  },
  {
    "molecule": "CN(C)c1ccc(/C=C2\\Oc3ccccc3C2=O)cc1",
    "result": "> 100 µM (inactive)"
  }
]

Consider now this further molecule.
Look at this molecule and give its reported GI50. Cc1nc2ccccc2n1CCc1nc2ccccc2[nH]1 > 100 µM (inactive)

----------
test system: MOLT-4; assay: NCI tumour cell line growth inhibition, 48 h
Structures can show the parent of a compound that is named as a salt. Active and inactive are the calls of the source. Rule as the data show it: active = GI50 up to about 1.1 µM and inactive = higher.
Pick from True (active), False (inactive) when you respond.

[
  {
    "molecule": "C/C=C/C=C\\C=C/C(O)C(C)C(CCC(C)C1OC(=O)C=CC1C)OP(=O)(O)O (centres undefined)",
    "assignedLabel": "True"
  },
  {
    "molecule": "N#Cc1nnn(-c2ccc(Br)cc2)c1O",
    "assignedLabel": "False"
  },
  {
    "molecule": "CCN(CC)c1ccc(C(=C2C=CC(=[N+](CC)CC)C=C2)c2ccc(N(CC)CC)cc2)cc1",
    "assignedLabel": "True"
  },
  {
    "molecule": "N#CC(C#N)=Cc1ccc(Oc2ccccc2)cc1",
    "assignedLabel": "False"
  },
  {
    "molecule": "CC1(C)C=CC(=O)C(O)C(C)(C)C1=O (centres undefined)",
    "assignedLabel": "False"
  }
]

Each molecule tested received a call. Report the one for CC(CN1c2ccccc2Sc2ccccc21)N(C)C (centres undefined) [PROMETHAZINE HYDROCHLORIDE] . False

Do the same for CC(=O)NNc1nc(C)c(C(/C=C/c2ccc(Cl)cc2)=N\NS(=O)(=O)c2ccc(C)cc2)s1 please False

Do the same for COc1ccc(CCc2ccc3c(c2)OCO3)cc1 please False

Do the same for CCCCOC(=O)CC(CC(=O)OCCCC)(OC(C)=O)C(=O)OCCCC [ACETYLTRIBUTYL CITRATE] please False

Do the same for O=C(c1ccccc1)c1c(CC(O)c2ccccc2)n(C(=O)c2ccccc2)c2ccccc12 (centres undefined) please False

Do the same for COc1cc(C(=O)C2CC3(CCC2(O)c2cc(OC)c(OC)c(OC)c2)CC(=O)Nc2ccccc2C3=O)cc(OC)c1OC (centres undefined) please False

----------
test system: HL-60; test: NCI tumour cell line growth inhibition, 48 h
The source made the active and inactive calls. No stated cut-off is given here; in the data, active = GI50 up to about 1.1 µM and inactive = higher. Starred links: 1 amine or outer side, 2 acyl side, 3 side chain; linkers in the order of their positions; H or OH if unused. Non-standard residues stand in square brackets, D forms with d. Residues, ends and D or L forms follow the SMILES beside them. *: point of attachment. X47 = CCC(=O)CC1CC(C)CC(C(=O)[*:2])N1[*:1]; X46 = CCCCCCCCC(C)C(=O)*; Aib = CC(C)(N)C(=O)O; X48 = CC(CN(C)CCO)N*
Pick from true (1) for active, false (0) for inactive when you respond.

These recorded examples may help you get a feel for the data.
[
  {
    "compound": "CCCCCCCCC(C)C(=O)N1CCCC1C(=O)N1C(CC(=O)CC)CC(C)CC1C(=O)NC(C)C(=O)NC(C)(C)C(=O)NC(C)(C)C(=O)NC(C(=O)NC(C)C(=O)NC(C)(C)C(=O)NC(C)(C)C(=O)NC(C)CN(C)CCO)C(C)CC (stereo not drawn) (X46-P[X47]A[Aib][Aib]IA[Aib][Aib]-X48; configuration not given here)",
    "assignedLabel": "true (1)"
  },
  {
    "compound": "NC(=O)c1cc([N+](=O)[O-])cc([N+](=O)[O-])c1 [NITROMIDE]",
    "assignedLabel": "false (0)"
  }
]

Consider now this further compound.
Each compound tested received a call. Report the one for CSC1(SC2=NCCN2)SC2(NCCN2)S1 . false (0)
